Measurement Target: abc isoform of human TMEM16A channel expressed in CHO cells (Homo sapiens, UniProt Q5XXA6, DEL476-501)
Sequence (Q5XXA6 with tags, fused parts or gaps isoform Q5XXA6-5 DEL539-564): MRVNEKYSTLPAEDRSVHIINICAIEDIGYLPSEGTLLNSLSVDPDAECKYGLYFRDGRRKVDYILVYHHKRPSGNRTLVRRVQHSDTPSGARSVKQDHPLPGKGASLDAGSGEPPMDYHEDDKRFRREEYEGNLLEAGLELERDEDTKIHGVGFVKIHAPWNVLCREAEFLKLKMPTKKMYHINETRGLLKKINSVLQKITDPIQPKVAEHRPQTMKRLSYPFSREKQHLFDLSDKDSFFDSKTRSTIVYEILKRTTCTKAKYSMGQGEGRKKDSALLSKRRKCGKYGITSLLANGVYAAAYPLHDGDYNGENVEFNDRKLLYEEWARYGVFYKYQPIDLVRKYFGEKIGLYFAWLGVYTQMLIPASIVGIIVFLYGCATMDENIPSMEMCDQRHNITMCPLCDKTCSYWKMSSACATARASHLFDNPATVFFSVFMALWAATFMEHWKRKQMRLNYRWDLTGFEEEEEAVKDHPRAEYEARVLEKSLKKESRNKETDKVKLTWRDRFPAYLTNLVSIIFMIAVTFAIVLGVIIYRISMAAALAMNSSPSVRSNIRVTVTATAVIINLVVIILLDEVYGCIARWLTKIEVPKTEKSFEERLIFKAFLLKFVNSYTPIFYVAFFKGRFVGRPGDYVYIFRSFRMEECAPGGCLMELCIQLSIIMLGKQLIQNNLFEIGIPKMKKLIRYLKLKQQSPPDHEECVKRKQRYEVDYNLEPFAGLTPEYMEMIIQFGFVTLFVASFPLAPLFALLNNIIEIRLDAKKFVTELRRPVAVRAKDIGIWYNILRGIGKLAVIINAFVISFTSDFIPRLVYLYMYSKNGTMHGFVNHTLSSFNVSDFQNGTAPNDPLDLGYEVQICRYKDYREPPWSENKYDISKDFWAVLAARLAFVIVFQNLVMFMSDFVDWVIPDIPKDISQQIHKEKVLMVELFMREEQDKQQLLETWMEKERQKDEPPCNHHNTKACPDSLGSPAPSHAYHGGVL
Assay Details: Automated patch clamping (QPatch) assay to measure TMEM16A activity in whole-cell
Measurement Context: CHO cells expressing human TMEM16A (abc), whole-cell automated patch clamp, Hill fit; read-out: TMEM16A QPATCH assay EC50 V3 EC50
EC50 less than 70 nM is met; EC50 greater than or equal to 70 nM is not met.

compound="CCC(CC)NC(=O)c1cc(-c2cccc(-c3ncc(C(=O)N[C@H](C(=O)OC(C)(C)C)C(C)C)o3)c2)[nH]n1 [Example 1.9]" assigned_class=met
compound="C[C@H](NC(=O)c1cc(-c2cccc(-c3ncc(C(=O)N[C@@H](C)C4CC4)o3)c2)[nH]n1)C1CC1 [Example 2.5]" assigned_class=met
compound="COC(=O)[C@@H](NC(=O)c1cnc(-c2cccc(-c3cc(C(=O)N[C@H](C)C4CC4)n[nH]3)c2)o1)C(C)C [Example 1.5]" assigned_class=met
compound="COC(=O)[C@H](CC1CCCCC1)NC(=O)c1cnc(-c2cccc(-c3cc(C(=O)NC(C4CC4)C4CC4)n[nH]3)c2)o1 [Example 1.4]" assigned_class="not met"
compound="CCC(CC)NC(=O)c1cc(-c2cccc(-c3ncc(C(=O)N[C@H](C)C4CC4)o3)c2)[nH]n1 [Example 1.40]" assigned_class="not met"
compound="CCC(CC)NC(=O)c1cnc(-c2cccc(-c3cc(C(=O)NCc4ccccc4)n[nH]3)c2)o1 [Example 3.16]" assigned_class="not met"
compound="CCC(CC)NC(=O)c1cnc(-c2cccc(-c3cc(C(=O)Nc4cccc(OC(F)(F)F)c4)n[nH]3)c2)o1 [Example 3.14]" assigned_class="not met"
compound="CCC(CC)NC(=O)c1cnc(-c2cccc(-c3nc(C(=O)NC(CC)CC)n(CCN4Cc5ccccc5C4)n3)c2)o1 [Example 15.7]" assigned_class="not met"

All values here come from patent US20220306617A1.
